test: equilibrium solubility in water at 20 °C with varying cyclodextrin content; assay type: physicochemical; conditions: water with cyclodextrin, aqueous with cosolvent or surfactant or cyclodextrin, thermodynamic from solid, water containing 165 mg/ml cyclodextrin
value_kind: solubility thermodynamic (mg/mL)
Answer with a number only, understood to be in mg/mL.

Item CC(C)(NC(=O)C(N)Cc1c[nH]c2ccccc12)C(=O)O (stereo not shown) has what recorded solubility thermodynamic? 41.2

---

experiment: aqueous solubility of compound (A) as a function of pH (UV-spectroscopy); format: physicochemical; details: aqueous media, aqueous buffer; pH 7; R-enantiomer used
value_kind: solubility

Item CC(C)(NC(=O)C(N)Cc1c[nH]c2ccccc12)C(=O)O (stereo not shown) has what recorded solubility? ~10000 µg/mL
